All figures here come from patent US20160376240A1.

Target: TrkA (Homo sapiens, UniProt P04629)
Sequence (P04629 33-796): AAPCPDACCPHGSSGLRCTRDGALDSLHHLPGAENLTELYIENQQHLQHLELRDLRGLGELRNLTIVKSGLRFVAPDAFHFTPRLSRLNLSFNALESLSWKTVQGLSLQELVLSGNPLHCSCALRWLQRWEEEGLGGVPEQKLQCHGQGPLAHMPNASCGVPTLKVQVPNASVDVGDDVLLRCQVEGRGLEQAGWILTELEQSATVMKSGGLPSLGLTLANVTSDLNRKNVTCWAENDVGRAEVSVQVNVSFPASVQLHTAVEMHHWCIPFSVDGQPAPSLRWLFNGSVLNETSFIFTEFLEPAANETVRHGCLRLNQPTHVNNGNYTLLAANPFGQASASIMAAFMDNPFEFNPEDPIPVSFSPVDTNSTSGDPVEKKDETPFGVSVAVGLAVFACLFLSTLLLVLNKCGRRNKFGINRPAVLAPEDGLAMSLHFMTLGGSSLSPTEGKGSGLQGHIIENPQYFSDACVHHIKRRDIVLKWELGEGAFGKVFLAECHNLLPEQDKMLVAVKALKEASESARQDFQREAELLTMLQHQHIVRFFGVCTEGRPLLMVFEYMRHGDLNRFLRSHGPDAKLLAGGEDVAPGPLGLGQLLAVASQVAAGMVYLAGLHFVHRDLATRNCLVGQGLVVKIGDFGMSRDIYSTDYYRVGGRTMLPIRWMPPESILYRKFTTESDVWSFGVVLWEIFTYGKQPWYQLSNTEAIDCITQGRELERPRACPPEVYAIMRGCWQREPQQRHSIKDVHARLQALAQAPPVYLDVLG
pIC50: −log10 of the molar value.
MEASUREMENT_LABEL: pIC50

CC(Oc1cc(-c2ccc(C(N)=O)c(N3CCN(c4cccnc4)CC3)c2)cc2[nH]nc(N)c12)C(F)(F)F (centres unmarked) [Example 91]; 8.27

(I) CC(=O)Nc1ccc(-c2cc(OC3CCCC3)c3c(C)n[nH]c3c2)cc1NCCOc1ccccc1 [Example 127]
(II) CNC(=O)c1ccc(-c2cc(OC3CCCC3)c3c(C)n[nH]c3c2)cc1N1CCN(C(=O)OCC(C)C)CC1 [Example 128]
stdin: Thinking about recorded pIC50 values, which is higher, I or II ? Answer = label.
stdout: I

* * *

Biological target: TrkB (Homo sapiens)
Sequence (Q16620 32-822): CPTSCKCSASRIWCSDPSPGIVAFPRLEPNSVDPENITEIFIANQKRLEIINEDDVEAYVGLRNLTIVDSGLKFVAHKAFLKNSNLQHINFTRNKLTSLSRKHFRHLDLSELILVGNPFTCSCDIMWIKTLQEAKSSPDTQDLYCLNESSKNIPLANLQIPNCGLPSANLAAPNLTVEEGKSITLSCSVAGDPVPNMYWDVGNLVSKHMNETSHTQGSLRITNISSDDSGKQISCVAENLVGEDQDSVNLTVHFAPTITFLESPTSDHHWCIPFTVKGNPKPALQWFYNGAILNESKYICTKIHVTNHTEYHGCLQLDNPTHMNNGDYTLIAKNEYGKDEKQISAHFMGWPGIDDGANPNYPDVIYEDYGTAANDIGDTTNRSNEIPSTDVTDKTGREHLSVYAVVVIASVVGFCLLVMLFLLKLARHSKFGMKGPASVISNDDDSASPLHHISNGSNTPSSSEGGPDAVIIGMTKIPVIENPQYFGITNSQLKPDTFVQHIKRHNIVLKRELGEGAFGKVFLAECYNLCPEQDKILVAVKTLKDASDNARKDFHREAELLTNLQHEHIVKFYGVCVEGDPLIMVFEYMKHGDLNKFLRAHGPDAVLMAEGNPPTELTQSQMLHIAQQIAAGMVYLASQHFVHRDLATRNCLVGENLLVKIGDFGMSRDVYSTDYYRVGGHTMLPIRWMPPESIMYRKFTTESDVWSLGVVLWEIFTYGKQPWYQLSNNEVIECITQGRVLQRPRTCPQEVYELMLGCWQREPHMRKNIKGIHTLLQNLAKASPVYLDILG
pIC50: −log10 of the molar value.
MEASUREMENT_LABEL: pIC50

In the examples that follow, each entry is paired with its recorded pIC50.
NC(=O)c1ccc(-c2cc(OC3CCOCC3)c3c(N)n[nH]c3c2)cc1N1CCN(c2cccnc2)CC1 [Example 2]; 8.51
CNC(=O)c1ccc(-c2cc(O[C@H](C)C(F)(F)F)c3c(N)n[nH]c3c2)cc1N1CCN(C2CCCCC2)CC1 [Example 56]; 7.56
CNC(=O)c1ccc(-c2cc(O[C@@H](C)C(F)(F)F)c3c(N)n[nH]c3c2)cc1N1CCN(C2CCCCC2)CC1 [Example 47]; 6.57
CC(Oc1cc(-c2ccc(C(N)=O)c(N3CCN(c4ccccc4)CC3)c2)cc2[nH]nc(N)c12)C(F)(F)F (centres unmarked) [Example 92]; 8.90

(P) NC(=O)c1ccc(-c2cc(OC3CCCC3)c3c(N)n[nH]c3c2)cc1N1CCN(c2cccnc2)CC1 [Example 69]
(Q) NC(=O)c1ccc(-c2cc(OC3CCCC3)c3c(N)n[nH]c3c2)cc1N1CCN(CCN2CCOCC2)CC1 [Example 70]
(R) NC(=O)c1ccc(-c2cc(OC3CCOCC3)c3c(N)n[nH]c3c2)cc1N1CCN(C2CC2)CC1 [Example 3]
(S) NC(=O)c1ccc(-c2cc(OC3CCCC3)c3c(N)n[nH]c3c2)cc1N1CCN(C2CCCCC2)CC1 [Example 74]
(T) CNC(=O)c1ccc(-c2cc(OC3CCOCC3)c3c(N)n[nH]c3c2)cc1N1CCN(C2CCCCC2)CC1 [Example 29]
stdin: Could you please sort these 5 entries by pIC50 from high to low? The labels, placed in the requested order, form the answer.
stdout: P, S, R, T, Q

(A) NC(=O)c1ccc(-c2cc(OC3CCCC3)c3c(N)n[nH]c3c2)cc1N1CCN(c2ccccc2)CC1 [Example 71]
(B) CNC(=O)c1ccc(-c2cc(OC(C)C)c3c(N)n[nH]c3c2)cc1N1CCN(C2CCCCC2)CC1 [Example 109]
stdin: // select label with min value of measured pIC50 from [ A , B ] Answer = label.
stdout: B
(B: 8.59, A: 8.82)

(1) CNC(=O)c1ccc(-c2cc(OC3CCOCC3)c3c(N)n[nH]c3c2)cc1N1CCN(CC2CCCC2)CC1 [Example 110]
(2) CNC(=O)c1ccc(-c2cc(OC3CCOCC3)c3c(C)n[nH]c3c2)cc1N1CCN(C(=O)OC(C)C)CC1 [Example 125]
stdin: // select label with min value of measured pIC50 from [ 1 , 2 ] Answer = label.
stdout: 2
(2: 8.49, 1: 8.79)

* * *

Molecular target: TrkA (Homo sapiens, UniProt P04629)
Construct: purchased Invitrogen PV3144
Assay: TrkA kinase inhibition, HTRF assay
Type: biochemical
Conditions: LCK peptide substrate 125 nM, TrkA 2-10 nM pre-incubated with ATP 200 μM
pIC50: −log10 of the molar value.
MEASUREMENT_LABEL: pIC50

In the examples that follow, each entry is paired with its recorded pIC50.
NC(=O)c1ccc(-c2cc(O[C@H]3CCOC3)c3c(N)n[nH]c3c2)cc1N1CCN(c2ccccc2)CC1; 8.53
NC(=O)c1ccc(-c2cc(OC3CCOCC3)c3c(N)n[nH]c3c2)cc1N1CCN(c2cccnc2)CC1; 8.13

(P) CNC(=O)c1ccc(-c2cc(OC3CCOCC3)c3c(N)n[nH]c3c2)cc1N1CCNCC1
(Q) NC(=O)c1ccc(-c2cc(OC3CCCC3)c3c(N)n[nH]c3c2)cc1N1CCC(c2ccccc2)CC1
stdin: Thinking about recorded pIC50 values, which is higher, P or Q ? Answer = label.
stdout: P
(P: 8.15, Q: 7.61)

(I) CNC(=O)c1ccc(-c2cc(OC3CCOCC3)c3c(C)n[nH]c3c2)cc1N1CCN(C(=O)OC(C)C)CC1
(II) CNC(=O)c1ccc(-c2cc(OC3CCOCC3)c3c(C)n[nH]c3c2)cc1N1CCN(C(=O)NC(C)C)CC1
stdin: // select label with min value of measured pIC50 from [ I , II ] Answer = label.
stdout: I
(I: 8.10, II: 8.64)

* * *

Target: TrkA (Homo sapiens)
Construct: purchased Invitrogen PV3144
Assay: TrkA kinase inhibition, HTRF assay
Format: biochemical
Details: LCK peptide substrate 125 nM, TrkA 2-10 nM pre-incubated with ATP 200 μM
pIC50: −log10 of the molar value.
MEASUREMENT_LABEL: pIC50

(P) CNC(=O)c1ccc(-c2cc(O[C@H](C)C(F)(F)F)c3c(N)n[nH]c3c2)cc1N1CCC(O)(c2ccccc2)CC1 [Example 60]
(Q) NC(=O)c1ccc(-c2cc(OC3CCCC3)c3c(N)n[nH]c3c2)cc1N1CCN(C(=O)N2CCOCC2)CC1 [Example 82]
(R) CCOC(=O)N1CCN(c2cc(-c3cc(OC4CCOCC4)c4c(C)n[nH]c4c3)ccc2C(=O)NC)CC1 [Example 134]
stdin: Order required: smallest reported pIC50 first, largest last, for all compounds above. The labels, placed in the requested order, form the answer.
stdout: P, Q, R
(P: 6.65, Q: 7.65, R: 7.90)

* * *

Target: TrkA (Homo sapiens)
pIC50: −log10 of the molar value.
MEASUREMENT_LABEL: pIC50

In the examples that follow, each entry is paired with its recorded pIC50.
CNC(=O)c1ccc(-c2cc(OC3CCOCC3)c3c(C)n[nH]c3c2)cc1N1CCN(C(=O)OC(C)C(F)(F)F)CC1 (centres unmarked) [Example 163]; 6.77
CNC(=O)c1ccc(-c2cc(O[C@@H](C)C(F)(F)F)c3c(N)n[nH]c3c2)cc1N1CCN(c2ccccc2)CC1 [Example 39]; 7.38
CC(C)(C)C(=O)N1CCN(c2cc(-c3cc(OC4CCOCC4)c4c(N)n[nH]c4c3)ccc2C(=O)NC2CC2)CC1 [Example 25]; 6.73
CNC(=O)c1ccc(-c2cc(OC3CCOCC3)c3c(C)n[nH]c3c2)cc1N1CCN(Cc2ccccc2)C(=O)C1 [Example 159]; 7.67
CC(=O)c1ccc(-c2cc(OC3CCOCC3)c3c(N)n[nH]c3c2)cc1N1CCN(c2nccs2)CC1 [Example 21]; 7.48

(a) CCc1n[nH]c2cc(-c3ccc(C(=O)NC)c(N4CCN(C(=O)OC(C)(C)C)CC4)c3)cc(OC3CCOCC3)c12 [Example 158]
(b) CC(Oc1cc(-c2ccc(C(=O)NC3CC3)c(N3CCN(c4cccnc4)CC3)c2)cc2[nH]nc(N)c12)C(F)(F)F (centres unmarked) [Example 28]
(c) CC(=O)Nc1ccc(-c2cc(OC3CCOCC3)c3c(C)n[nH]c3c2)cc1N1CCN(Cc2ccccc2)CC1 [Example 145]
(d) CC(=O)Nc1ccc(-c2cc(OC3CCOCC3)c3c(C)n[nH]c3c2)cc1N1CCN(C(=O)NC(C)C)CC1 [Example 151]
stdin: Could you please sort these 4 entries by pIC50 from high to low? The labels, placed in the requested order, form the answer.
stdout: c, b, d, a

(P) CNC(=O)c1ccc(-c2cc(O[C@@H](C)C(F)(F)F)c3c(N)n[nH]c3c2)cc1N1CCN(c2cnccn2)CC1 [Example 46]
(Q) CC(Oc1cc(-c2ccc(C(=O)NC3CC3)c(N3CCN(c4ccccc4)CC3)c2)cc2[nH]nc(N)c12)C(F)(F)F (centres unmarked) [Example 26]
stdin: Thinking about recorded pIC50 values, which is higher, P or Q ? Answer = label.
stdout: P
(P: 7.49, Q: 7.24)

* * *

pIC50: −log10 of the molar value.
The following compounds have recorded pIC50 on TrkA (Homo sapiens).
MEASUREMENT_LABEL: pIC50

CNC(=O)c1ccc(-c2cc(O[C@@H](C)C(F)(F)F)c3c(N)n[nH]c3c2)cc1N1CCN(c2ncccn2)CC1 [Example 43]; 7.20

(A) CNC(=O)c1ccc(-c2cc(OC3CCOCC3)c3c(N)n[nH]c3c2)cc1N1CCN(CC2CCCC2)CC1 [Example 110]
(B) NC(=O)c1ccc(-c2cc(OC3CCOCC3)c3c(N)n[nH]c3c2)cc1N1CCN(C2CC2)CC1 [Example 3]
stdin: Thinking about recorded pIC50 values, which is higher, A or B ? Answer = label.
stdout: A
(A: 8.56, B: 7.26)
